Reference source: PubChem BioAssay AID2205

- protocol description: tubulin staining increase by stabilizing compounds – imaging, high-content imaging, primary screen (AID 2205)
- assay setup: HeLa tubulin immunostaining HCS, 24 h, at 10 µM; measured here: nuclear condensation Hoechst responders, stronger effect = higher value, share of cells brighter than vehicle mean+2SD
Hit rate of the full screen: of about 200,000 compounds, about 1,600 (0.8%) were called active. The list comes from a sample in which actives are over-represented; it also holds close analogues and randomly drawn compounds.
Below: a set of entries, each annotated with reported % Hoechst-high responders.

These solved cases illustrate the format of a correct answer.
- compound: "O=C(COC(=O)Cn1cnc2ccccc2c1=O)NCc1ccccc1Cl"
  % Hoechst-high responders: "1.88%"
- compound: "CC(C)(C)c1nc2ccccc2c(=O)n1N1C(=O)c2ccccc2C1=O"
  % Hoechst-high responders: "13.9%"
- compound: "O=S(=O)(c1ccc(F)cc1)N1CCN(C(=S)NCc2ccco2)CC1"
  % Hoechst-high responders: "3.02%"
- compound: "C/[N+]([O-])=C\\c1ccc([N+](=O)[O-])o1"
  % Hoechst-high responders: "1.53%"

// fetch % Hoechst-high responders given entry `CCC1(CC)Cc2ccccc2-c2nc3ccccc3c(=O)n21` 1.65%

Answer with the recorded % Hoechst-high responders of COc1ccc(NC(C(=O)Nc2cccc(C(C)=O)c2)c2ccccc2)cc1 (stereo unspecified) only. 4.94%

Check the records and state % Hoechst-high responders for `S=C(NCc1ccc2c(c1)OCO2)NCc1ccco1` 2%

----------
- protocol description: tubulin staining increase by stabilizing compounds – imaging, high-content imaging, primary screen (AID 2205)
- assay setup: HeLa tubulin immunostaining HCS, 24 h, at 10 µM; measured here: nuclear condensation Hoechst responders, stronger effect = higher value, share of cells brighter than vehicle mean+2SD
Out of some 200,000 compounds screened, about 1,600 (0.8%) were called active. For the sample, actives were picked, then their nearest neighbours and some compounds at random.
In this section, each of the compounds is paired with its reported % Hoechst-high responders.
Numbers only; they are read as %.

- compound: "C[n+]1ccccc1C1CCCC/C1=N\\Nc1ccc([N+](=O)[O-])cc1[N+](=O)[O-] (stereo not drawn)"
  result unit: "%"
  % Hoechst-high responders: 1.98
- compound: "COc1ccc(C(=O)NN(C)c2nc(-c3ccccc3)cc(C)c2S(C)(=O)=O)cc1"
  result unit: "%"
  % Hoechst-high responders: 3.04
- compound: "Cc1ccc(/C=N/NC(=O)c2sccc2OCc2ccc(F)cc2)cc1"
  result unit: "%"
  % Hoechst-high responders: 18.4
- compound: "COc1ccccc1NC(=O)C1=C(C)Nc2nc3ccccc3n2C1c1cccs1 (stereo not drawn)"
  result unit: "%"
  % Hoechst-high responders: 37.9
- compound: "CCc1ccc(-n2c(=S)sc3c(=O)n(-c4ccccc4OC)c(=S)[nH]c32)cc1"
  result unit: "%"
  % Hoechst-high responders: 2.26

For `CC(=O)c1cc(-c2ccccc2)n(CC(=O)NC2CCCCC2)c1C` , write its % Hoechst-high responders. 1.48

Look up and report measured % Hoechst-high responders for this entry: `CSc1nc(N(C)NC(=O)c2cccc(C)c2)c2ccccc2n1` 33.9

Indicate its recorded % Hoechst-high responders; the compound in question is Cc1nccn1CCCNC(=O)CC1C(=O)NCCN1Cc1ccc(Cl)c(F)c1 (stereo not drawn) 2.31

----------
- protocol description: tubulin staining increase by stabilizing compounds – imaging, high-content imaging, primary screen (AID 2205)
- assay setup: HeLa tubulin immunostaining HCS, 24 h, at 10 µM; measured here: nuclear condensation Hoechst responders, stronger effect = higher value, share of cells brighter than vehicle mean+2SD
Screen size: about 200,000 compounds; about 1,600 (0.8%) were called active. This excerpt belongs to a sample that is enriched for actives.
Below, each entry is listed alongside its reported % Hoechst-high responders.
Express your answer in %, writing the number without its unit.

Use these answered entries as a reference point.
- molecule: "O=C(COC(=O)c1cc(=O)[nH]c2ccccc12)Nc1nc(-c2cccc(Br)c2)cs1"
  endpoint label: "% Hoechst-high responders"
  value: 3.67
- molecule: "O=C(CSc1ccc2nnc(-c3ccccc3)n2n1)N1CCCc2ccccc21"
  endpoint label: "% Hoechst-high responders"
  value: 4.1
- molecule: "Cc1ccc(-n2c(C)cc(C(=O)CSc3nnc4ccccn34)c2C)cc1"
  endpoint label: "% Hoechst-high responders"
  value: 2.88
- molecule: "CCOC(=O)c1sc2nc(C)nc(SCC(N)=O)c2c1C"
  endpoint label: "% Hoechst-high responders"
  value: 2.34
- molecule: "CCOC(=O)c1c(C)[nH]c(C(=O)COc2ccc3c(c2)OCO3)c1C"
  endpoint label: "% Hoechst-high responders"
  value: 3.29

The record that follows has no % Hoechst-high responders shown yet.
Retrieve % Hoechst-high responders measured for `Nc1ccc(Nc2ccccc2)cc1` and print it. 2.02
